Source of measurements: patent US10513694B2

# target system: NANOLUC® enzyme (Oplophorus gracilirostris, UniProt Q9GV45, A31E/A60N/A81I/F95D/I117V/K70R/L54V/L99Q/M102K/N193R/P142E/Q151K/Q38R/Q45L/V71I/Y165I)
# Sequence (Q9GV45 28-196 with tags or gaps with the stated changes limits assumed): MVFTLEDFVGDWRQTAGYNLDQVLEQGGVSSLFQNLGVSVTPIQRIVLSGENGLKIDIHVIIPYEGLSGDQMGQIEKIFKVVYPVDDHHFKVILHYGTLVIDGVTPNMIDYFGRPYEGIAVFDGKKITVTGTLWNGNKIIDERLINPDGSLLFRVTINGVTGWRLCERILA
# assay summary: Inhibitor IC50 determination (NANOLUC enzyme, furimazine)
# Format: biochemical
# reported conditions: IC50 (uM), 0.4 ng/ml NANOLUC enzyme, final furimazine 10 uM (at Km)
IC50 values for the compounds below.
parameter measured: IC50 (µM)

# chem smiles, parameter measured, endpoint result
rows = [
    ("CCN(C(=O)Cn1c(C(=O)N[C@H]2CC[C@H](C(=O)NCCN(C)C)CC2)cc2sccc21)c1cccc(C)c1", "IC50", 16.8),
    ("CCN(C(=O)Cn1c(C(=O)N[C@H]2CC[C@H](C(=O)OC)CC2)cc2sccc21)c1ccc(CO)cc1", "IC50", 1.9),
    ("CCN(C(=O)Cn1c(C(=O)N[C@H]2CC[C@H](C(=O)OC)CC2)cc2ccccc21)c1cccc(C)c1", "IC50", 0.052),
    ("CCN(C(=O)Cn1c(C(=O)Nc2cccc(C(=O)OC)c2)cc2sccc21)c1cccc(C)c1", "IC50", 7),
    ("CCc1cccc(N(CC)C(=O)Cn2c(C(=O)N[C@H]3CC[C@H](C(=O)NCCCCCCS(=O)(=O)O)CC3)cc3ccccc32)c1", "IC50", 0.0019),
    ("CCN(C(=O)Cn1c(C(=O)N2CCCC2)cc2sccc21)c1cccc(C)c1", "IC50", 1.1),
    ("CCN(C(=O)Cn1c(C(=O)N[C@H]2CC[C@H](C(=O)OC)CC2)cc2sccc21)c1cccc(CO)c1", "IC50", 0.077),
]
